// Purine nucleoside phosphorylase (Plasmodium falciparum, UniProt Q8T9Z7) pKi records
The quantity pKi is defined as the negative base-10 logarithm of the molar concentration.

Past entries and their recorded results:
O=c1ccn(CCN2CCCC2)c(=O)[nH]1; 4.57
O=c1cc[nH]c(=O)n1CCN1CCCC1; 5.22
O=C1NC(=O)N(COCCO)C(=O)C1Cc1cccc(OCc2ccccc2)c1 (stereo not given); 8.96
O=c1cc[nH]c(=O)n1CCN1CCC[C@H]1CO; 4.12

Continue with the next compound.
Task item: Give Purine nucleoside phosphorylase (Plasmodium falciparum, UniProt Q8T9Z7) pKi for "O=c1ccn(CCCN2CCC[C@H]2CO)c(=O)[nH]1"
Reply: 3.87

* * *

The following molecules each carry a recorded pKi for Uridine phosphorylase 1 (Homo sapiens, UniProt Q16831).
Reminder that pKi means the negative base-10 logarithm of the concentration expressed in mol/L.

O=C1NC(=O)C(Cc2cccc(OCc3ccccc3)c2)C(=O)N1; 5.64

// next item, pKi requested
Task item: I'm curious: which pKi was measured for O=C1NC(=O)N(COCCO)C(=O)C1Cc1cccc(OCc2ccccc2)c1 (configuration not stated) tested on Uridine phosphorylase 1 (Homo sapiens, UniProt Q16831)?
Reply: 8.96

* * *

test system: Plasmodium falciparum; test: Antiplasmodial activity against erythrocytic stages of Plasmodium falciparum 3D7 after 48 hrs by SYBR green assay; assay type: functional, organism-based; conditions: 3D7, 48 h
pEC50: −log10 of the molar value.
Reported pEC50 values for the following compounds.

O=c1cc[nH]c(=O)n1CCN1CCCC1; < 3.30
O=c1cc[nH]c(=O)n1CCN1CCC[C@H]1CO; < 3.00
O=c1ccn(CCCCN2CCC[C@H]2CO)c(=O)[nH]1; < 3.00
O=c1ccn(CCCN2CCCC2)c(=O)[nH]1; < 3.00
O=c1ccn(CCCCN2CCCC2)c(=O)[nH]1; < 3.00

Task item: So what does the record say about pEC50 for "O=c1ccn(CCN2CCCC2)c(=O)[nH]1" ?
Reply: < 3.30

Task item: Please report the recorded pEC50 for "O=c1ccn(CCCN2CCC[C@H]2CO)c(=O)[nH]1" .
Reply: 3.43

* * *

target: Purine nucleoside phosphorylase (Plasmodium falciparum, UniProt Q8T9Z7)
Sequence (Q8T9Z7 whole entry): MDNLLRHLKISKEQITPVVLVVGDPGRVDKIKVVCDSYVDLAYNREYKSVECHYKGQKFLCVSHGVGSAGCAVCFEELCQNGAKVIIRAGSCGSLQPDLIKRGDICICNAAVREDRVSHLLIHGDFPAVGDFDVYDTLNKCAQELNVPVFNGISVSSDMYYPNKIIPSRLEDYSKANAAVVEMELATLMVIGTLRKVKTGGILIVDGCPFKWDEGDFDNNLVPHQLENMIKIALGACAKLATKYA
reported.property: IC50

O=C1NC(=O)C(Cc2ccccc2)C(=O)N1; > 1000 µM
O=C1NC(=O)N(COCCO)C(=O)C1Cc1cccc(OCc2ccccc2)c1 (stereo not drawn); > 1000 µM

// next entry
Task item: Endpoint output: IC50 of "O=C1NC(=O)C(Cc2cccc(OCc3ccccc3)c2)C(=O)N1" . Value?
Reply: > 1000 µM
